assay.system: WT ZmADK3 (Zea mays, UniProt A0A1D6E5Z5)
assay.method.text: Binding affinity by MST

molecule	Kd, nM
Nc1ncnc2c1ncn2[C@@H]1O[C@H](CO)[C@@H](O)[C@H]1O [Ado, adenosine]	280

###

assay.system: ZmADK2 (Zea mays, UniProt B4FFH8, T4S)
Sequence (B4FFH8 1-342 T4S): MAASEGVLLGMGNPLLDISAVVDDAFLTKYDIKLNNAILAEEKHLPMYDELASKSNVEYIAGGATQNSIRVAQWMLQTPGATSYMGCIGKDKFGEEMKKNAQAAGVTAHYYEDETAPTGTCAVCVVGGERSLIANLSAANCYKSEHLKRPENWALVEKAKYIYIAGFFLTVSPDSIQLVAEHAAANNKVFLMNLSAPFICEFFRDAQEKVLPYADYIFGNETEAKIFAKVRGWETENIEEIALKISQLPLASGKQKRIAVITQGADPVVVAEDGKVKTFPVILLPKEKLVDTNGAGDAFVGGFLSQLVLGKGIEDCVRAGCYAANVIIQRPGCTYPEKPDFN
assay.method.text: ADK activity, coupled reaction with PK and LDH
Assay type: biochemical
condition.context: ZmADK2; 100 µM substrate; 10 mM ATP; pH 7.5; 30 °C
# log10 of Specific activity per record follows
parameter.measured: log10 of Specific activity (log10 of the value in nmol s^–1 mg^–1)

compound	log10 of Specific activity
Nc1ncnc2c1ncn2[C@@H]1O[C@H](CO)[C@@H](O)[C@H]1O	1.61
CC(C)Nc1ncnc2c1ncn2[C@@H]1O[C@H](CO)[C@@H](O)[C@H]1O	0.59
C/C(=C\CNc1ncnc2c1ncn2[C@@H]1O[C@H](CO)[C@@H](O)[C@H]1O)CO (relative stereo) [tZR, trans-zeatin riboside]	0.58
CN(C)c1ncnc2c1ncn2[C@@H]1O[C@H](CO)[C@@H](O)[C@H]1O	0.51
CNc1ncnc2c1ncn2[C@@H]1O[C@H](CO)[C@@H](O)[C@H]1O [N ^6-MethylAdo, 6-methylamino-9H-purine-9-β-D-riboside]	0.46
CC(C)CNc1ncnc2c1ncn2[C@@H]1O[C@H](CO)[C@@H](O)[C@H]1O	0.62
OC[C@H]1O[C@@H](n2cnc3c(NCc4ccccc4)ncnc32)[C@H](O)[C@@H]1O [BAPR, 6-benzylaminopurine riboside]	0.71

###

assay.system: PpADK1 (Physcomitrium patens, UniProt O49923)
Construct: made in house; host or cells: E. coli T7 Express Iq
Sequence (O49923 whole entry): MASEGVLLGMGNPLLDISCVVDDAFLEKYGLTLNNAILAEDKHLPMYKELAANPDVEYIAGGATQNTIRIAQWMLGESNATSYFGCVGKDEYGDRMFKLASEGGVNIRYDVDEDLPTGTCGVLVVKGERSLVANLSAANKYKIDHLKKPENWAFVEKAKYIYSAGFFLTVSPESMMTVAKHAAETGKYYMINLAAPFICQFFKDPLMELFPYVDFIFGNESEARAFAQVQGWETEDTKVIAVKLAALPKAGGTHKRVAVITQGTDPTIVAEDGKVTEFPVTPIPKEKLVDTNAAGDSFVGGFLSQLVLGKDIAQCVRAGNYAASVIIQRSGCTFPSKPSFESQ
assay.method.text: Binding affinity by microscale thermophoresis (MST)
Parameters: species or system Physcomitrella patens
condition.context: second binding event (ATP site), read-out: second (higher) KD value
# Kd per record follows

compound	unit.name	Kd
Nc1ncnc2c1ncn2[C@@H]1O[C@H](COP(=O)(O)OP(=O)(O)OP(=O)(O)OP(=O)(O)OP(=O)(O)OC[C@H]2O[C@@H](n3cnc4c(N)ncnc43)[C@H](O)[C@@H]2O)[C@@H](O)[C@H]1O [AP5A, diadenosine pentaphosphate]	mM	0.63
Nc1ncnc2c1ncn2C1OC(COP(=O)(O)O)C(O)C1O (centres unmarked)	mM	8.3

###

assay.system: PpADK1 (Physcomitrium patens, UniProt O49923)
Construct: made in house; host or cells: E. coli T7 Express Iq
assay.method.text: ADK activity, coupled reaction with PK and LDH
Assay type: biochemical, Physcomitrella patens
condition.context: 100 µM substrate, 10 mM ATP, pH 7.5, 30 °C
# Specific activity per record follows

molecule	Specific activity
CC(C)CNc1ncnc2c1ncn2[C@@H]1O[C@H](CO)[C@@H](O)[C@H]1O	0.90±0.06 nmol s^–1 mg^–1
CN(C)c1ncnc2c1ncn2[C@@H]1O[C@H](CO)[C@@H](O)[C@H]1O	0.91±0.02 nmol s^–1 mg^–1
CNc1ncnc2c1ncn2[C@@H]1O[C@H](CO)[C@@H](O)[C@H]1O [N ^6-MethylAdo, 6-methylamino-9H-purine-9-β-D-riboside]	0.89±0.00 nmol s^–1 mg^–1

###

# Specific activity per record follows
assay.system: ZmADK3 (Zea mays, UniProt A0A1D6E5Z5)
Sequence (A0A1D6E5Z5 entry or part of it): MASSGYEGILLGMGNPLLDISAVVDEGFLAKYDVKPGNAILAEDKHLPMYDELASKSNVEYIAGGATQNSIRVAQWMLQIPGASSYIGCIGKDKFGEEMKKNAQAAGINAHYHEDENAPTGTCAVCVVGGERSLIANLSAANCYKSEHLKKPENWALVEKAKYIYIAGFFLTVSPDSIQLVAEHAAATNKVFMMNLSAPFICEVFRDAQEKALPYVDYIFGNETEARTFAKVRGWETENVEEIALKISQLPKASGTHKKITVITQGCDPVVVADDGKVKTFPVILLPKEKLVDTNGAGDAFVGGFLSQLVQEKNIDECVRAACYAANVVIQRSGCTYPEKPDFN
assay.method.text: ADK activity, coupled reaction with PK and LDH
Format: biochemical
condition.context: ZmADK3; 100 µM substrate; 10 mM ATP; pH 7.5; 30 °C

molecule	unit.name	Specific activity
CNc1ncnc2c1ncn2[C@@H]1O[C@H](CO)[C@@H](O)[C@H]1O [N ^6-MethylAdo, 6-methylamino-9H-purine-9-β-D-riboside]	nmol s^–1 mg^–1	5.1
CC(C)=CCNc1ncnc2c1ncn2C1OC(CO)C(O)C1O (stereo not drawn) [iPR, N ^6-isopentenyl adenosine]	nmol s^–1 mg^–1	5.1
CN(C)c1ncnc2c1ncn2[C@@H]1O[C@H](CO)[C@@H](O)[C@H]1O [N ^6,N^6-DimethylAdo]	nmol s^–1 mg^–1	5.1

Data origin: paper PMC12369479
